pIC50 overview
# TESTED SYSTEM: human AKT2 (Homo sapiens (Human))
# Sequence (P31751 whole entry): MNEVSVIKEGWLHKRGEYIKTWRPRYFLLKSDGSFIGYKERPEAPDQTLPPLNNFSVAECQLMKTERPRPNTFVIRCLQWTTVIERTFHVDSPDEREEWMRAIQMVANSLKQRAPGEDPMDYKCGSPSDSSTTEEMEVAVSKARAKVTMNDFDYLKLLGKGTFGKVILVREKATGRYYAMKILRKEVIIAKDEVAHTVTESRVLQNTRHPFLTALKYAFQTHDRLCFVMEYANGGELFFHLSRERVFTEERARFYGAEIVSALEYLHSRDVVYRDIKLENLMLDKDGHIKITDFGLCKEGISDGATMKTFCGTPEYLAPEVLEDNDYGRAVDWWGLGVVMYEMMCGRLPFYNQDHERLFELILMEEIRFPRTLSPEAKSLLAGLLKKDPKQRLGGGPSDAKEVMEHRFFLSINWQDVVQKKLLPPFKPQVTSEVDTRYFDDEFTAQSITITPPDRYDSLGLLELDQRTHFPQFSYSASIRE
# TEST NAME: AKT2 kinase activity inhibition (TR-FRET, biotinylated Crosstide substrate)
# Type: biochemical
# CONDITION DETAILS: preincubation 120 min at 25° C.; ATP 150 μM; Crosstide 500 nM
// returns pIC50 (minus log10 of molar concentration), number only

Illustrative cases are given below, each with its answer.
{"COMPOUND": "N[C@]1(c2ccc(-c3nc4n(c3-c3ccccc3)COc3ccncc3-4)cc2)C[C@](O)(C2CC2)C1", "EXPERIMENTAL VALUE": 9.11}
{"COMPOUND": "COc1ccc2c(c1)-c1nc(-c3ccc([C@]4(N)C[C@@](O)(C5CC5)C4)cc3)c(-c3ccccc3)n1CO2", "EXPERIMENTAL VALUE": 8.29}
{"COMPOUND": "NC1(c2ccc(-c3nc4n(c3-c3ccsc3)COc3cccc(F)c3-4)cc2)CC(O)(C2CC2)C1 (stereo not shown)", "EXPERIMENTAL VALUE": 9.15}

--- query ---
Param request: pIC50 | system human AKT2 (Homo sapiens (Human)) | item `C[C@]1(O)C[C@@](N)(c2ccc(-c3nc4n(c3-c3ccccc3)COc3ccccc3-4)cc2)C1`
8.77

Every entry's value here was drawn from patent US8772283B2.
